assay-protocol: Volume of distribution at steady state in rat
assay-setup: in vivo
measure: Vd (L/kg)
// return numeric value only (unit: L/kg, not printed)

Query: What does the data say about its Vd? Entry: CCOc1ccc(Cc2cc([C@@H]3O[C@H](CO)[C@@H](O)[C@H](O)[C@H]3O)ccc2Cl)cc1 [DAPAGLIFLOZIN]
Result: 1.6

====

assay-protocol: Elimination half life in intra arterially dosed dog
assay-setup: in vivo
measure: half-life (h)
Report the value in h with no unit label.

Query: Can you share its half-life? I mean this compound: "CCOc1ccc(Cc2cc([C@@H]3O[C@H](CO)[C@@H](O)[C@H](O)[C@H]3O)ccc2Cl)cc1"
Result: 7.4

====

assay-protocol: Permeability across human Caco-2 cells
measure: Papp

Query: Find the recorded Papp belonging to "CCOc1ccc(Cc2cc([C@@H]3O[C@H](CO)[C@@H](O)[C@H](O)[C@H]3O)ccc2Cl)cc1" and report it.
Result: > 150 nm/s

====

assay-protocol: Fraction unbound in rat serum at 10 uM
measure: fraction unbound at 10 µM

Query: Consider the molecule shown here: CCOc1ccc(Cc2cc([C@@H]3O[C@H](CO)[C@@H](O)[C@H](O)[C@H]3O)ccc2Cl)cc1 [DAPAGLIFLOZIN] What is its recorded fraction unbound at 10 µM?
Result: 0.03

====

assay-protocol: Fraction unbound in human serum at 10 uM
measure: fraction unbound at 10 µM
Field format: numeric only.

Query: Entry "CCOc1ccc(Cc2cc([C@@H]3O[C@H](CO)[C@@H](O)[C@H](O)[C@H]3O)ccc2Cl)cc1" has what fraction unbound at 10 µM?
Result: 0.04
